System Under Test: T1, NLpoly11S
T1 chain: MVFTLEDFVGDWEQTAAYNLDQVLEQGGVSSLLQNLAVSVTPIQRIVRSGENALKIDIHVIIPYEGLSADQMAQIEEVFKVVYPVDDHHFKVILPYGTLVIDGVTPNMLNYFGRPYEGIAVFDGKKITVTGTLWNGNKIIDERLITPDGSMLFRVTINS
Procedure Details: luminescence complementation titration, one-site specific binding fit
Parameter Measured: pKd
Quick note: pKd values are minus log10 of concentrations in mol/L.

## Task Which pKd reading was recorded for the binder VEGYRLFQQIL (modifications not checked) [array2.94] ?
## Result 5.03

## Task So what does the record say about pKd for VEGYRLFQKIS (modifications not checked) [array2.64] ?
## Result 6.23

## Task Report pKd for VEGYRLFKKIS (modifications not checked) [array2.55] please.
## Result 7.11

## Task State the recorded pKd for this entry: VEGYRLFEKAL (modifications not checked) [array2.101]
## Result 4.90

## Task What value of pKd has been recorded for this entry: VEGYRLFEKEL (modifications not checked) [array2.102]
## Result 5.24

## Task Need pKd, item VTGYRLFKEAS (modifications not checked) [array2.8]
## Result 5.59

## Task Request the reported pKd associated with VEGYRLFKKAS (modifications not checked) [array2.56]
## Result 6.19

## Task For the binder VTGYRLFQQAS (modifications not checked) [array2.14] , what pKd is on record?
## Result 5.95
